Tested on: UACC-257 melanoma
experimental protocol: NCI tumour cell line growth inhibition, 48 h
parameter: TGI (µM)
Give bare numbers, in µM.

1) C[C@@]1(O)C[C@@H](N2C(=O)O[C@@H](c3ccccc3)[C@H]2c2ccccc2)[C@@H]1COCc1ccccc1; 36.7

// batch mode: one TGI value per listed entry
1. CCOC(=O)N1CCN(/[N+]([O-])=N/Oc2ccc([N+](=O)[O-])cc2[N+](=O)[O-])CC1
2. CCN(Cc1ccc(Cl)cc1)c1ccc(CO)c(Cl)c1

Result:
[7, 0.512]

----------
Tested on: UO-31 renal
experimental protocol: NCI tumour cell line growth inhibition, 48 h
parameter: TGI

// batch mode: one TGI value per listed entry
1. COc1ccc([C@H]2CC(=O)C[C@H](c3ccc(OC)cc3)C23C(=O)c2ccccc2C3=O)cc1
2. COc1ccc(C(=S)N2CCN(c3cccc(C)c3)CC2)cc1OC
3. N.N.N.N.[Co+3].[N-]=[N+]=[N-].[N-]=[N+]=[N-].[N-]=[N+]=[N-]
4. O=C(O)CN(CC(=O)O)Cc1cc(C#Cc2ccc(C#Cc3ccccc3)cc2)cc(CN(CC(=O)O)CC(=O)O)n1
5. CN1CC[C@]23c4c5ccc(O)c4O[C@H]2C(O)CC[C@@]3(O)[C@H]1C5 (some centres undefined)
6. CN1CCC2(CC1)ONC1=NCCN12

Result:
> 100 µM
> 100 µM
> 100 µM
> 79.7 µM
> 100 µM
> 100 µM

// batch mode: one TGI value per listed entry
1. CC(=O)OCC1=C(C(=O)O)N2C(=O)C(NC(=O)CSc3ccncc3)C2SC1 (centres undefined)
2. O=C(c1ccccc1)n1c(Cc2ccccc2)nc2cc(C34CC5CC(CC(C5)C3)C4)ccc21

Result:
1: > 100 µM; 2: > 100 µM

// batch mode: one TGI value per listed entry
1. COC(=O)NC(=O)c1cn(C2OC(CO)C(O)C2O)c(=O)[nH]c1=O (centres undefined)
2. COC(=O)[C@H](Cc1ccccc1)NP(=O)(OCCC#N)OCC1OC(n2cc(C)c(=O)[nH]c2=O)CC1N=[N+]=[N-] (some centres undefined)
3. O=C(Nc1ccc([As](=O)(O)O)cc1)Nc1cccc(Cl)c1Cl
4. O=C(O)CCCSC(=O)Nc1ccc(N=Nc2ccccc2)cc1

Result:
1: > 100 µM; 2: > 100 µM; 3: > 100 µM; 4: > 100 µM

// batch mode: one TGI value per listed entry
1. C=C[C@@]1(C)CC[C@@H]2[C@@]3(C1)O[C@H]3CC1[C@](C)(C(=O)OC)CCC[C@@]12C (some centres undefined)
2. CC(=O)OCCCC(NC(=O)OC(C)(C)C)C(=O)NC(CCCOC(C)=O)C(=O)NC(Cc1ccc([N+](=O)[O-])cc1)C(=O)NCC(=O)OCc1ccccc1 (centres undefined)
3. O=C(NNC(=S)Nc1ccccc1)c1cc(-c2ccccc2)nc2ccccc12
4. CCc1ccccc1NC(=O)C1=C(C)NC(C)=C(C(=O)Nc2ccccc2CC)C1c1ccccc1Cl
5. Fc1ccc(C(OCCN2CCN(CCCCl)CC2)c2ccc(F)cc2)cc1
6. CCCc1cc(=O)oc2c3c(c4c(c12)OC(C)(C)CC4)O[C@@H](C)[C@H](C)[C@H]3O

Result:
1: 31.8 µM; 2: 30 µM; 3: 31 µM; 4: > 100 µM; 5: > 100 µM; 6: 19 µM

Problem: Look at this compound and give its reported TGI. Fc1ccc(Oc2nc3ccc(C(F)(F)F)cc3nc2-c2ccccc2)cc1
Result: > 100 µM
